tested on: A549; assay: Drug uptake in human A549 cells assessed as PpIX production per mg of protein at 0.1 mM after 4 hrs; assay type: ADME, cell-based; conditions: a549, 4 h, 100 µM
test_readout: Drug uptake (ng/mg)
Report the value in ng/mg with no unit label.

Solved entries:
structure=COC(=O)CCC(=O)CNC(=O)[C@H](Cc1c[nH]c2ccccc12)NC(C)=O system_under_test=A549 test_readout="Drug uptake" unit_annotation=ng/mg endpoint_result=-0.02
structure=CCCCCCOC(=O)CCC(=O)CNC(=O)[C@H](Cc1ccccc1)NC(C)=O system_under_test=A549 test_readout="Drug uptake" unit_annotation=ng/mg endpoint_result=10.1
structure=COC(=O)CCC(=O)CNC(=O)[C@H](Cc1ccccc1)NC(C)=O system_under_test=A549 test_readout="Drug uptake" unit_annotation=ng/mg endpoint_result=4.42
structure=NCC(=O)CCC(=O)O system_under_test=A549 test_readout="Drug uptake" unit_annotation=ng/mg endpoint_result=39.9

Entry COC(=O)CCC(=O)CNC(=O)[C@H](CC(C)C)NC(C)=O ; Drug uptake = 5.91
